Cited source for all entries: patent US10899754B2

Protocol details: Toxicokinetics in Beagle dogs, 7 day repeat oral administration
Format: in vivo
Run conditions: female, Beagle, dog, plasma, po, 20 mg/kg, 20 mg/kg PO BID, Day1, Female, Subject 1
Assay metric: Cmax (ng/mL)
// note: answer is a bare numeric in ng/mL

In: Please give the measured Cmax for this compound: CC(C)CN(c1ccc([C@H](C)CC(=O)O)cc1Nc1nnc(C2CC2)s1)C1CCOCC1 [Example 23]
Out: 1000

###

Protocol details: Toxicokinetics in Beagle dogs, 7 day repeat oral administration
Format: in vivo
Run conditions: male, Beagle, dog, plasma, po, 20 mg/kg, 20 mg/kg PO BID, Day1, Male, Subject 1, read-out: AUC (0-12 hr)
Assay metric: AUC(0-t) (ng·h/mL)
Reply with just the number (in ng·h/mL).

In: Please report the recorded AUC(0-t) for CC(C)CN(c1ccc([C@H](C)CC(=O)O)cc1Nc1nnc(C2CC2)s1)C1CCOCC1 .
Out: 5100
